These data points were gathered from ChEMBL document CHEMBL1128246.

What follows is a collection of IC50 values obtained with Thyroid hormone receptor beta (Rattus norvegicus).
Sequence (P18113 whole entry): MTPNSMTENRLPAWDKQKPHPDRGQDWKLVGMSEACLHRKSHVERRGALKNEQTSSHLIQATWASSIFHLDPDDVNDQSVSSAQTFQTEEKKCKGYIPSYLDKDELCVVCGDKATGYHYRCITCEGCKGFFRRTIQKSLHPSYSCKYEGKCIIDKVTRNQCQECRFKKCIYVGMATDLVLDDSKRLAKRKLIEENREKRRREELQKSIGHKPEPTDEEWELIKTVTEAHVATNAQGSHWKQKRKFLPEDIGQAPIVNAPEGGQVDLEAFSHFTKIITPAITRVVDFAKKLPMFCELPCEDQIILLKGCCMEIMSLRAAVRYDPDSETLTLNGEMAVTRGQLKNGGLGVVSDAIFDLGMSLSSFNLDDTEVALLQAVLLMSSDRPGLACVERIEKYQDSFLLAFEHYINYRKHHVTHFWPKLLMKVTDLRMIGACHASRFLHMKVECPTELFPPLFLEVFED

# compound, IC50, nM
records = [
    ("Cc1cc(NC(Cc2ccccc2)C(=O)O)cc(C)c1Oc1ccc(O)c(C(C)C)c1 (centres undefined)", 400),
    ("CC(C)c1cc(Oc2c(Br)cc(CCC(=O)O)cc2Br)ccc1O", 0.11),
    ("CC(Nc1cc(Cl)c(Oc2ccc(O)c(C(C)C)c2)c(Cl)c1)C(=O)O (centres undefined)", 48),
    ("CC(C)c1cc(Oc2c(Cl)cc(NCC(=O)O)cc2Cl)ccc1O", 1.1),
]
